Every entry's value here was drawn from the supplement of paper PMC9732359.

Measured protein stability index of individual entries
assay-procedure: protein stability index of a GFP-peptide fusion (yeast GPS) (PSI 1-4); higher = more stable; sorted into four equal gates, so the index is relative within each strain
measurement-setup: san1∆
// return just the number, without any unit appended

Example results:
item-sequence	protein stability index
NSAARNIQHLLYGKRFF [PRE7]	2.12
SVIVDSKVTVPPSKHST [ESC2]	2.72
KAGKVAVVVRGRYAGKK [RPL27A]	2.19
KPFLKGLVNHRVGVKLK [SMX3]	2.07
NTSLISLFTYFREAIVA [PRP8]	1.34

Lookup: Need protein stability index of LFQVEYSLEAIKLGSTA [PUP2] , thanks.
Found: 2.08

Lookup: Any idea what its protein stability index is? The sequence is DNNSKAEASFTFGTKHA [YLR335W/NUP2]
Found: 2.93

Lookup: # protein stability index lookup, item SNAFYSVLRDTLVAQNL [SMC4]
Found: 1.94

Lookup: Can you look up the measured protein stability index of FLQSVDITGIRDVSDDV [GRR1] for me?
Found: 1.89

Lookup: So what does the record say about protein stability index for RSLEKVNNSVSKTGSVD [SSN2] ?
Found: 3.36

Lookup: // protein stability index lookup, key: LVDKRIDMLPMLLGTDL [DIS3]
Found: 2.27

Lookup: Given the entry TDSSALTYDRLEFATIR [PRE9] , report its measured protein stability index.
Found: 3.01

Lookup: Which protein stability index reading was recorded for the sequence ALGQDTEKMEEQLDLLS [MED11] ?
Found: 2.99

Lookup: Query: protein stability index; subject: GDTVQFAEYIQANIQLY [PRE1]
Found: 2.2

Lookup: Fill in: protein stability index of LYQLFKTCIQGINSPLS [YJL039C/NUP192] is ___
Found: 1.64

Lookup: Give the measured protein stability index of TVFFLIRVAETRGGASA [YJL039C/NUP192] .
Found: 2.76

Lookup: Looking for the measured protein stability index of VLKKKNIQKKQPAKEKG [RRP6] , can you help?
Found: 3.09

Lookup: Record request: protein stability index value, item QGLAMVEKYAPDVVRSL [RRP42]
Found: 2.3

Lookup: What value of protein stability index has been recorded for this entry: AEDLTIAAKTHILRISF [SIN4]
Found: 2.85

----------
assay-procedure: protein stability index of a GFP-peptide fusion (yeast GPS) (PSI 1-4); higher = more stable; sorted into four equal gates, so the index is relative within each strain
measurement-setup: ubr1∆
endpoint: protein stability index

Take a look at these entries with their results.
item-sequence	protein stability index
WYEASTWIQQFKSTMLQ [ARP7]	2.14
DDDDEDDDEIVMPVPNV [SKP1]	3.21
RILNFFDKNTKTTPNTA [YMR153W/NUP53]	2.43
DFDESLKYLDDLKAQFQ [RPN9]	3.11

Lookup: I have this sequence here, KYPMYMQLEEELMKLDG [MED6] , and I need its recorded protein stability index.
Found: 1.36

Lookup: Return reported protein stability index; argument: AINVFPEGYKAKSISTS [RPO31]
Found: 2.31

Lookup: # lookup: protein stability index of QLKWAQNTIDDTEMKMK [YIL149C/MLP2]
Found: 2.74

Lookup: Bench note: what protein stability index did NAPAWFKLSSESVIEQI [RPS13] show?
Found: 2.48

Lookup: Recorded protein stability index for ETSSFGSMFSGDNTSDV [RRI1] , please?
Found: 2.66

Lookup: Please look up its protein stability index: GLSPKKVGEDIAKATKE [RPL12A]
Found: 2.77

Lookup: What does the record list as protein stability index for VQLLSKSHNAHVRCGTA [RPN2] ?
Found: 1.72

Lookup: So what does the record say about protein stability index for YSLASVTLKGAKALESL [POP1] ?
Found: 2.77

Lookup: // lookup protein stability index for MTEDIEQKKTATEVTPQ [RPC19]
Found: 3.28

Lookup: Find the recorded protein stability index belonging to FPPGVIGIDEGSDEAYV [RPC40] and report it.
Found: 3.51
